# RP-LC retention time annotations
Experiment: gradient 5% acetonitrile 3 min, to 50% in 2 min, to 85% in 15 min, held 3 min, 100 µL/min
Settings: column: Zorbax Extend-C18 2.1 x 50 mm; eluents: water / acetonitrile, 0.1% formic acid
# output: numeric value plus its unit

Worked cases, answers included:
- Compound: "c1ccc2c(-c3nc(-c4ccc5c(c4)ncn5CCN4CCCCC4)no3)n[nH]c2c1"
  Result: "609 s"
- Compound: "CCc1cccc(C)c1Nc1c(-c2ccc(Cl)cc2)nc2ncccn12"
  Result: "978 s"
- Compound: "CCCC(=O)NCCn1c(=O)n(Cc2ccccc2)c2cccnc21"
  Result: "718 s"
- Compound: "Cc1noc(C)c1CC(=O)N1CC(c2noc(C3CCCN3C)n2)C1 (stereo unspecified)"
  Result: "594 s"
- Compound: "Brc1ccccc1Cc1nc(-c2ccn3cnnc3c2)no1"
  Result: "806 s"

Sure, the documented RP-LC retention time for O=C(Nc1ccc2c(c1)OCCO2)N1CCCC1c1nc(-c2ccc(F)cc2F)no1 (stereo unspecified) is 882 s

---

Experiment: gradient 5% acetonitrile 3 min, to 50% in 2 min, to 85% in 15 min, held 3 min, 100 µL/min
Settings: column: Zorbax Extend-C18 2.1 x 50 mm; eluents: water / acetonitrile, 0.1% formic acid
# RP-LC retention time annotations
// return numeric value only (unit: s, not printed)

- Smiles Repr: "CC(C)NC(=O)N(C1CCOCC1)C1CN(C(=O)c2cncc(Br)c2)C1"
  Readout Number: 604

Sure, the documented RP-LC retention time for O=C(CN1CCCc2nc(C3CC3)ncc2C1=O)NCCCN1CCCC1=O is 594

Sure, the documented RP-LC retention time for Cn1nc2n(c1=O)CCN(C(=O)Cc1cccs1)CC2 is 610

---

Experiment: gradient 5% acetonitrile 3 min, to 50% in 2 min, to 85% in 15 min, held 3 min, 100 µL/min
Details: column: Zorbax Extend-C18 2.1 x 50 mm; eluents: water / acetonitrile, 0.1% formic acid
# RP-LC retention time annotations
// return numeric value only (unit: s, not printed)

Sure, the documented RP-LC retention time for CN1CCCCCCN(S(=O)(=O)c2cccc3nsnc23)CCC1=O is 783

Sure, the documented RP-LC retention time for O=C(Nc1ncnc2c1CCC2)c1ccc(S(=O)(=O)N2CCc3ccccc3C2)cc1 is 783

Sure, the documented RP-LC retention time for COc1ccc(C(=O)Nc2cccc(-c3ccc(S(C)(=O)=O)nn3)c2)cc1OC is 681

Sure, the documented RP-LC retention time for CCc1cccc(C)c1NC(=O)C1CCN(S(=O)(=O)c2c(C)nn(-c3ccccc3)c2C)CC1 is 976

Sure, the documented RP-LC retention time for Cc1ccc(Nc2c(-c3ccc(Br)cc3)nc3cnccn23)c(C)c1 is 1170

Sure, the documented RP-LC retention time for CCOC(=O)c1cnc2c(-c3ccc(Cl)cc3)c(CC)nn2c1N is 1280

---

Assay: gradient 5% acetonitrile 3 min, to 50% in 2 min, to 85% in 15 min, held 3 min, 100 µL/min
Details: column: Zorbax Extend-C18 2.1 x 50 mm; eluents: water / acetonitrile, 0.1% formic acid
Labelling field: enter 1 if recorded RP-LC retention time is less than 800 s. Enter -1 if it equals or exceeds that cut-off.

- Compound: "Cc1ccc2c(c1)OCC(=O)N2Cc1nc(-c2cccc(Br)c2)no1"
  Category Label: -1
- Compound: "Cc1oc2cc(OCC#N)ccc2c(=O)c1-c1ccc(Cl)cc1"
  Category Label: -1
- Compound: "O=C(O)c1ccc(NC(=O)c2ccc([N+](=O)[O-])cc2Cl)cc1"
  Category Label: 1

// switching to the query compound
Given CCOc1ccc(-c2cc3c(=O)n(Cc4nc(-c5ccccc5OCC)no4)ncn3n2)cc1 , is recorded RP-LC retention time strictly lower than 800 s? -1

---

Assay: gradient 5% acetonitrile 3 min, to 50% in 2 min, to 85% in 15 min, held 3 min, 100 µL/min
Conditions: column: Zorbax Extend-C18 2.1 x 50 mm; eluents: water / acetonitrile, 0.1% formic acid
Labelling field: enter satisfied if recorded RP-LC retention time is less than 700 s. Enter not satisfied if it equals or exceeds that cut-off.

Use the examples below as a reference point.
- Compound: "CCN1C(=O)c2cccnc2Sc2cc(CNC(=O)c3cccs3)ccc21"
  Category Label: "not satisfied"
- Compound: "COc1ccc(S(=O)(=O)N2CCCC(C(=O)Nc3ccc(Cl)c(Cl)c3)C2)cc1C (configuration not stated)"
  Category Label: "not satisfied"
- Compound: "CSCCC(NC(=O)COc1cccc2ccccc12)C(=O)O (configuration not stated)"
  Category Label: "not satisfied"
- Compound: "O=C(c1nnc(-c2ccc(S(=O)(=O)N3CCOCC3)cc2)o1)N1CCN(C2CCCCC2)CC1"
  Category Label: "satisfied"
- Compound: "CCNc1cc(N2CCC(CCC(=O)N3CCCN(c4ncccn4)CC3)CC2)ncn1"
  Category Label: "satisfied"
- Compound: "CC(C)NC(=O)C1CCCN(c2nc3ncn(CC(=O)N4CCc5ccccc5C4)c(=O)c3s2)C1 (configuration not stated)"
  Category Label: "not satisfied"
- Compound: "Cc1ccc(-c2noc(-c3cccc(S(=O)(=O)Nc4ccc(C#N)cc4)c3)n2)cc1"
  Category Label: "not satisfied"
- Compound: "Cc1ccc(N2C(=O)CSC2c2ccccc2)cc1 (configuration not stated)"
  Category Label: "not satisfied"
- Compound: "CC(C)n1cc(S(=O)(=O)N2CCN(c3ccccc3Cl)CC2)c2cccnc21"
  Category Label: "not satisfied"
- Compound: "Cc1cccc(N2CCN(c3cc(C(=O)O)c4cc(NC(=O)C(C)(C)C)ccc4n3)CC2)c1C"
  Category Label: "not satisfied"

Given Cc1ccc(-c2cn3c4c(=O)n(C)c(=O)n(C)c4nc3n2Cc2ccc(F)cc2)cc1 , is recorded RP-LC retention time strictly lower than 700 s? not satisfied

Given O=C(NCCc1ccccc1)c1cc2sccc2n1Cc1ccc(F)cc1 , is recorded RP-LC retention time strictly lower than 700 s? not satisfied

Given CC1Cc2ccccc2N1C(=O)CSc1nnc(-c2ccccc2)o1 (configuration not stated) , is recorded RP-LC retention time strictly lower than 700 s? not satisfied

---

# RP-LC retention time annotations
Experiment: gradient 5% acetonitrile 3 min, to 50% in 2 min, to 85% in 15 min, held 3 min, 100 µL/min
Conditions: column: Zorbax Extend-C18 2.1 x 50 mm; eluents: water / acetonitrile, 0.1% formic acid
# output: numeric value plus its unit

- Compound: "CC(C)c1ccc(NC(=O)Cn2nc3n(c2=O)CCCCC3)cc1"
  Result: "779 s"

Sure, the documented RP-LC retention time for CCC(C)NC(=O)C1CCN(S(=O)(=O)c2c(C)nn(CC(=O)Nc3ccc(C)cc3)c2C)CC1 (stereo not drawn) is 806 s

Sure, the documented RP-LC retention time for O=C(NC1CCCC1)C1CCN(c2nc3ccc(-c4cncnc4)nc3s2)CC1 is 776 s

---

Assay: gradient 5% acetonitrile 3 min, to 50% in 2 min, to 85% in 15 min, held 3 min, 100 µL/min
Settings: column: Zorbax Extend-C18 2.1 x 50 mm; eluents: water / acetonitrile, 0.1% formic acid
# RP-LC retention time annotations
// return numeric value only (unit: s, not printed)

Worked cases, answers included:
- Compound: "O=C(CC(c1cccc(F)c1)n1cccc1)N1CCN(c2ccccn2)CC1 (stereo not given)"
  Result Type: "RP-LC retention time"
  Readout Number: 686
- Compound: "CC(Cc1ccco1)NC(=O)C1CC(=O)N(c2ccc(F)cc2)C1 (stereo not given)"
  Result Type: "RP-LC retention time"
  Readout Number: 714
- Compound: "Cc1ccccc1S(=O)(=O)N1CCc2c(c(-c3nnc(-c4ccc(F)cc4)o3)nn2C)C1"
  Result Type: "RP-LC retention time"
  Readout Number: 955
- Compound: "CN1C(=O)Cc2ccccc2C1C(=O)NCc1ccco1 (stereo not given)"
  Result Type: "RP-LC retention time"
  Readout Number: 668
- Compound: "CC(C)(C)c1cc(N2CCN(c3ccccn3)CC2)n2ncc(-c3ccc(Cl)cc3)c2n1"
  Result Type: "RP-LC retention time"
  Readout Number: 1220
- Compound: "Cc1ccc(F)cc1S(=O)(=O)N1CCc2c(c(-c3nnc(-c4ccccc4F)o3)nn2C)C1"
  Result Type: "RP-LC retention time"
  Readout Number: 981
- Compound: "CN(CC#N)C(=O)c1ccc(N2CCc3ccccc32)s1"
  Result Type: "RP-LC retention time"
  Readout Number: 913
- Compound: "Cc1cccc(-c2nc(N)n(C(=O)C(C)C)n2)c1"
  Result Type: "RP-LC retention time"
  Readout Number: 970
- Compound: "COc1ccccc1-c1noc(CCn2nc(-c3ccc4c(c3)OCO4)ccc2=O)n1"
  Result Type: "RP-LC retention time"
  Readout Number: 802

In the following, a different compound is considered.
Sure, the documented RP-LC retention time for COc1ccc(S(=O)(=O)N2CCC(c3noc(-c4ccccc4)n3)CC2)cc1Cl is 1140
